- Test Summary: Toxicity liver stage against HepG2, at 10uM
- Format: cell-based
- Set-up: test concentration 10 uM, cell line HepG2-A16-CD81EGFP
- Study Conditions: human, HepG2-A16-CD81EGFP cells; read-out: INHIBITION
Reported cytotoxicity at 10 µM values are given for each entry in this list.
Dear colleague, please return just the value in %, with no unit written.

A selection of reference data follows.
>  <Compound>
CN(CCc1ccccc1)C(=O)c1cc(CN2CCC(O)CC2)on1

>  <cytotoxicity at 10 µM [%]>
-2.92

$$$$
>  <Compound>
Cc1cc2cc(C(=O)N3CCN(CCO)[C@@H]4CS(=O)(=O)C[C@@H]43)ccc2o1

>  <cytotoxicity at 10 µM [%]>
-0.357

$$$$
>  <Compound>
CC(=O)Nc1ccc(Oc2cc(C)nc(C3CCNCC3)c2)cc1

>  <cytotoxicity at 10 µM [%]>
2.69

$$$$

Give the reported value of cytotoxicity at 10 µM for this record: `CC(=O)N1[C@H](CN(C)C)C[C@@H]2CN(C(=O)c3ccsc3)CC[C@@H]21`
-0.744

Look up and state reported cytotoxicity at 10 µM for `COCC(=O)N1CC2=CC(C)(C)COc3ccc(OC)c(c32)C1`
-2.59

* * *

- Test Summary: Toxicity liver stage against HepG2, at 10uM
- Format: cell-based
- Design: test concentration 10 uM, cell line HepG2-A16-CD81EGFP
- Study Conditions: human, HepG2-A16-CD81EGFP cells; read-out: INHIBITION
Quantity Name: cytotoxicity at 10 µM (%)
Give the value in % but do not write % after it.

Take a look at these entries with their results.
>  <Compound>
O[C@]12CCNC[C@H]1CN(c1ncccc1Cl)CC2

>  <cytotoxicity at 10 µM (%)>
10.2

$$$$
>  <Compound>
Cc1ccc(CN2CCN(C(=O)CCc3nc(Cl)n[nH]3)CC2=O)cc1

>  <cytotoxicity at 10 µM (%)>
-0.903

$$$$
>  <Compound>
CCn1c(Cn2cncn2)nnc1C1CCN(C(=O)CCSC)CC1

>  <cytotoxicity at 10 µM (%)>
-13.6

$$$$
>  <Compound>
CN(C)C(=O)N1CC(=O)NCC12CCN(C(=O)c1ccco1)C2 (stereo unspecified)

>  <cytotoxicity at 10 µM (%)>
-0.125

$$$$

State its cytotoxicity at 10 µM: CCS(=O)(=O)CC(C)N(C)C(=O)COc1ccccc1C#N (stereo unspecified)
-3.51

Tell me cytotoxicity at 10 µM reported for CCC(=O)N1CCCCC1c1nc(O)c2c(n1)CN(C(C)=O)CC2 (stereo unspecified)
0.525

Supply cytotoxicity at 10 µM value. Item: `Cc1nc(CC(=O)N2CCC[C@H]2c2nc(C(C)C)no2)cs1`
-14.2

* * *

Known cytotoxicity at 10 µM of a selection of molecules
- Test Summary: Toxicity liver stage against HepG2, at 10uM
- Assay type: cell-based
- Set-up: test concentration 10 uM, cell line HepG2-A16-CD81EGFP
- Study Conditions: human, HepG2-A16-CD81EGFP cells; read-out: INHIBITION
A number alone suffices; assume %.

A selection of reference data follows.
>  <Molecule>
CSCC[C@@H](CO)n1ccnc1-c1ccc(C)o1

>  <cytotoxicity at 10 µM [%]>
7.02

$$$$
>  <Molecule>
CCOC(=O)C1CCN(C(=O)c2cnn(-c3ccccc3F)c2N)CC1

>  <cytotoxicity at 10 µM [%]>
4.47

$$$$
>  <Molecule>
CCN(Cc1nc(COC)no1)C[C@]1(O)CCCN2CCCC[C@@H]21

>  <cytotoxicity at 10 µM [%]>
-0.124

$$$$
>  <Molecule>
CC(C)CN1C(=O)C2(CCN(Cc3nccs3)C2)c2ccccc21 (centres undefined)

>  <cytotoxicity at 10 µM [%]>
0.371

$$$$
>  <Molecule>
CC(C)CCN1CN=C(NS(=O)(=O)c2ccc(F)cc2)NC1

>  <cytotoxicity at 10 µM [%]>
-3.03

$$$$
>  <Molecule>
C[C@H](NC(=O)N1CCN(c2ccc(Cl)cc2)CC1)C(=O)N1CCSCC1

>  <cytotoxicity at 10 µM [%]>
-6.3

$$$$
>  <Molecule>
Cc1ccc(C(=O)NS(=O)(=O)Cc2ccc(F)cc2)cc1S(C)(=O)=O

>  <cytotoxicity at 10 µM [%]>
-7.36

$$$$
>  <Molecule>
O=C1CC(c2cccs2)c2sc(C(=O)O)c(-c3ccccc3)c2N1 (centres undefined)

>  <cytotoxicity at 10 µM [%]>
-1.66

$$$$

Complete the entry with cytotoxicity at 10 µM for CC(C)N1CCC(Cc2cncc(-c3ccccc3C(=O)O)n2)C1 (centres undefined)
-10

Return cytotoxicity at 10 µM for the following molecule: `CN(C)CCOc1ccc(CNC(=O)c2cccc(Cl)c2Cl)cc1`
15.5

Report measured cytotoxicity at 10 µM; entry is COc1ccc(N2CCN(C(=O)NC(C)c3nncn3C)CC2)cc1 (centres undefined)
-7.12

* * *

Below is a list of entries, each paired with its recorded cytotoxicity at 10 µM value.
- Test Summary: Toxicity liver stage against HepG2, at 10uM
- Assay type: cell-based
- Set-up: test concentration 10 uM, cell line HepG2-A16-CD81EGFP
- Study Conditions: human, HepG2-A16-CD81EGFP cells; read-out: INHIBITION
Just the number please, in %, no unit attached.

Solved cases below.
>  <Compound>
O=C(COc1coc(CN2CCCCC2)cc1=O)c1ccc(Cl)cc1

>  <Scale Unit>
%

>  <cytotoxicity at 10 µM>
3.13

$$$$
>  <Compound>
CCC[C@H]1CN(Cc2cc(C)no2)C[C@@H]1NC(=O)C1(COC)CCC1

>  <Scale Unit>
%

>  <cytotoxicity at 10 µM>
3.06

$$$$
>  <Compound>
c1cc(CN2CCCC(c3nnc(-c4cnccn4)o3)C2)ccn1 (configuration not stated)

>  <Scale Unit>
%

>  <cytotoxicity at 10 µM>
-9.14

$$$$
>  <Compound>
COCC(c1cccc(C(F)(F)F)c1)N(C)C(=O)c1cc(C)n[nH]1 (configuration not stated)

>  <Scale Unit>
%

>  <cytotoxicity at 10 µM>
-14.1

$$$$
>  <Compound>
Cc1cc(NC(=O)NCCc2cccs2)n(C)n1

>  <Scale Unit>
%

>  <cytotoxicity at 10 µM>
14.8

$$$$

Given the compound `Cc1cc(C(=O)N2CCNC(=O)C2)c(C)n1CC(F)(F)F` , write its reported cytotoxicity at 10 µM.
0.962

Please indicate cytotoxicity at 10 µM recorded for CCC(Nc1nccc(C2CCCC2)n1)c1ccccn1 (configuration not stated)
-126

// fetch cytotoxicity at 10 µM given entry CC(CC#N)N(C)Cc1ccccc1Cl (configuration not stated)
-8.67

* * *

- Test Summary: Toxicity liver stage against HepG2, at 10uM
- Assay type: cell-based
- Design: test concentration 10 uM, cell line HepG2-A16-CD81EGFP
- Study Conditions: human, HepG2-A16-CD81EGFP cells; read-out: INHIBITION
Below is a list of entries, each paired with its recorded cytotoxicity at 10 µM value.
Give the number; % is assumed, so skip it.

Solved entries:
>  <Compound>
O=C(c1ccccc1)N1CCO[C@@H]2CNC[C@@H]21

>  <cytotoxicity at 10 µM [%]>
-100

$$$$
>  <Compound>
COCCNC(=O)N1CCN(c2cc(F)ccc2F)CC1

>  <cytotoxicity at 10 µM [%]>
-5.95

$$$$
>  <Compound>
COC(=O)CCC(=O)N1CCC2(CN(Cc3cccc(Cl)c3)C2)C1

>  <cytotoxicity at 10 µM [%]>
-62.4

$$$$
>  <Compound>
O=C(Cn1cnc2sccc2c1=O)NCCCc1nnc2ccccn12

>  <cytotoxicity at 10 µM [%]>
5.84

$$$$
>  <Compound>
Cc1ccc(CN2CCC3(CC2)CC(N2CCN(C)CC2)CO3)s1 (stereo unspecified)

>  <cytotoxicity at 10 µM [%]>
-94.6

$$$$

// fetch cytotoxicity at 10 µM given entry COc1c(CNCC(O)COc2ccc3c(c2)OCO3)c(C)nn1C (stereo unspecified)
3.07

Please supply the value of reported cytotoxicity at 10 µM for the item COc1cc(C(=O)N2CCCC2CC(=O)c2cnn(C)c2)ccc1F (stereo unspecified)
-4.62

Report cytotoxicity at 10 µM for FC1(F)CCNCC12CCN(c1ccccn1)C2 (stereo unspecified)
-0.31

Identify the reported cytotoxicity at 10 µM for the following entry. CN(Cc1ccco1)C(=O)NC1CCCN(c2ncccn2)C1 (stereo unspecified)
-13.6

Using the record for `CCCNc1ncc(CN2C[C@@H]3CC[C@H]2CN(C2CCOCC2)C3)cn1` , state its measured cytotoxicity at 10 µM.
-7.84

Item `CS(=O)(=O)N1CCC2(CC1)NCCn1c(-c3ccccc3)cnc12` : provide cytotoxicity at 10 µM
3.61

* * *

- Test Summary: Toxicity liver stage against HepG2, at 10uM
- Format: cell-based
- Design: test concentration 10 uM, cell line HepG2-A16-CD81EGFP
- Study Conditions: human, HepG2-A16-CD81EGFP cells; read-out: INHIBITION
Quantity Name: cytotoxicity at 10 µM
State the value, then name its unit.

>  <Molecule>
CCn1c(C)cc(C(=O)Nc2ccccc2CN(C)C(C)=O)c1C

>  <cytotoxicity at 10 µM>
-1.03%

$$$$

Give the reported cytotoxicity at 10 µM for this molecule. `Cn1nc2c(cc1=O)CN(CC(=O)Nc1ccc(Cl)cn1)CC2`
0.874%

Please supply the value of reported cytotoxicity at 10 µM for the item `COc1cc2cc(C(=O)N[C@@H](C)C(=O)O)n(C)c2c(OC)c1OC`
12.5%

Let me know recorded cytotoxicity at 10 µM for `COc1c(CNCCc2c[nH]c3ccccc23)c(C(C)C)nn1C` , thanks.
3.41%
